Where do these numbers come from? They come from patent US9463210B1.

- method-description: Human equivalent dose estimate of the forskolin LD50 (Reagan-Shaw)
- condition-set: rat, oral; 2550×(6/37), Reagan-Shaw; read-out: HED of the rat LD50
outcome-measure: LD50 (mg/kg)
Enter your answer as a number in mg/kg; do not include the unit.

The molecule listed as C=C[C@@]1(C)CC(=O)[C@]2(O)[C@@]3(C)[C@@H](O)CCC(C)(C)[C@@H]3[C@H](O)[C@H](OC(C)=O)[C@@]2(C)O1 has a reported LD50 of 413
